Assay: Tanguay_ZF_120hpf_PIG_legacy: (Legacy) Oregon State University Tanguay Lab 120 Hour Post-fertilization zebrafish Assay for Pigmentation Malformation (AID 2283650);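 note: dechorionated Tropical 5D zebrafish embryos exposed singly from 6 to 120 hpf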
Results filed as inconclusive are left out. Calls of active or inactive are those of the source. Rule for the calls: active = hit-call score of the fitted dose curve at least 0.9, where 1 is the maximum; inconclusive = response in the unintended direction; inactive = score below 0.9.
# valid calls are active, inactive; nothing else

- CC(C)(c1cc(Br)c(O)c(Br)c1)c1cc(Br)c(O)c(Br)c1: inactive

Just curious, what result did c1ccc(C[n+]2cccc3ccccc32)cc1 get here?
inactive

Just curious, what result did CN1C(=O)N(c2ccccc2Br)Cc2cnc(Nc3ccc4c(c3)OCC(CO)O4)nc21 (stereo not drawn) get here?
active

Just curious, what result did CN(C)C(=O)C1(N2CCCCC2)CCN(CC[C@@]2(c3ccc(Cl)c(Cl)c3)CN(C(=O)c3ccccc3)CCO2)CC1 get here?
inactive

Just curious, what result did CC(C)(C)c1cc(/C=C2\SC(N)=NC2=O)cc(C(C)(C)C)c1O get here?
inactive

Just curious, what result did CC[C@@H]1C[C@H](N(Cc2cc(C(F)(F)F)cc(C(F)(F)F)c2)C(C)=O)c2cc(C(F)(F)F)ccc2N1C(=O)OC(C)C get here?
inactive

Just curious, what result did CCCCCCCC[Si](OCC)(OCC)OCC get here?
inactive

Just curious, what result did OC12N=C(c3ccccc3)SC1Cc1cc(Cl)ccc12 (stereo not drawn) get here?
active

* * *

Read-out: Thrombomodulin, THBD (gene 7056)
Assay: BSK_CASM3C_Thrombomodulin: BioMAP Diversity Plus: CASM3C Assay for Thrombomodulin Biomarker Activity (AID 2283051);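 note: thrombomodulin protein level measured by ELISA 24 h after dosing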
Settings: primary human coronary artery smooth muscle cells; actives raise or lower the signal
Calls of active or inactive are those of the source. The calls were made as follows: active = hit-call score of the fitted dose curve at least 0.9, where 1 is the maximum; inactive = score below 0.9.
# valid calls are True = active, False = inactive; nothing else

Examples from the recorded data:
• CC(O)CC(C)(C)O (configuration not stated) = False
• CC[C@H](NC(=O)c1cc(F)ccc1NS(=O)(=O)c1cccc2cccnc12)c1ccccc1 = True
• O=C(O)c1ccccc1-n1cc(C(=O)O)c(=O)c2cc(Nc3c(F)cc(F)cc3Cl)c(Cl)cc21 = False

Okay, next one:
Just curious, what result did Oc1ccccc1 get here?
False

* * *

Molecular target: rat Neurokinin-1 Receptor (NK1), Tacr1 (gene 24807) (UniProt P14600)
Sequence (P14600 whole entry, looked up): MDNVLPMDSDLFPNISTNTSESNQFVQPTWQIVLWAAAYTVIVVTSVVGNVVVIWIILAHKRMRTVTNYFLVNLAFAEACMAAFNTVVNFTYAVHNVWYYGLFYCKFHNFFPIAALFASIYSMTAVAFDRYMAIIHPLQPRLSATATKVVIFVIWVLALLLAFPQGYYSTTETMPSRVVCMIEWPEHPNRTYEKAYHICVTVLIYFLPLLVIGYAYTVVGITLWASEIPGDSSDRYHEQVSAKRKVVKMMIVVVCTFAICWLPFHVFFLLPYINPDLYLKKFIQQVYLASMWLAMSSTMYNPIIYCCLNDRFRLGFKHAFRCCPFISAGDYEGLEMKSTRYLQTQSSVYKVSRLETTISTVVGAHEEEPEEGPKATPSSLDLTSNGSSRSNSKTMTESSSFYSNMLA
Test: NVS_GPCR_rNK1: NovaScreen (NVS) G Protein-Coupled Receptor Assay for rat Neurokinin-1 Receptor (NK1) (AID 2283309)
Results filed as inconclusive are left out. The source made the active and inactive calls. Rule for the calls: active = hit-call score of the fitted dose curve at least 0.9, where 1 is the maximum; inconclusive = response in the unintended direction; inactive = score below 0.9.
# valid calls are true (1) = active, false (0) = inactive; nothing else

Examples from the recorded data:
- c1ccc(C[n+]2cccc3ccccc32)cc1: false (0)
- CN(C[C@@H](CC[N+]12CCC(C3CCCCC3)(CC1)CC2)c1ccc(Cl)c(Cl)c1)C(=O)c1cc(C(F)(F)F)cc(C(F)(F)F)c1: true (1)
- COc1ccc2cc(S(=O)(=O)N[C@H](CC(=O)N[C@H](Cc3ccc(CN4[C@H](C)CCC[C@@H]4C)cc3)C(=O)N(C)C(C)C)c3ccc4c(c3)OCO4)ccc2c1: true (1)
- CCN(Cc1cccnc1)C(=O)c1cccc(Cl)c1[C@]1(C)C(=O)N(Cc2ccc(OC)cc2OC)c2ccc(Cl)cc21: true (1)
- CCOC(=O)O[C@H](C)OC(=O)c1ccc2c(c1)cc(C(=O)NC1CCN(C(C)C)CC1)n2Cc1cc(-c2ccc(Cl)s2)on1: true (1)
- CC(C)(C)c1csc(-c2cc3cc(OCc4ccccc4CC(=O)O)ccc3o2)n1: false (0)

Just curious, what result did CCCCCCCCCCCC[N+](C)(C)C get here?
true (1)

Just curious, what result did CCN(CC)C(=O)c1cc(S(=O)(=O)Cc2ccccc2)c(N2CCC(c3ccccc3)CC2)cc1N(CC)CCN(C)C get here?
true (1)

Just curious, what result did CC[C@H](NC(=O)c1cc(F)ccc1NS(=O)(=O)c1cccc2cccnc12)c1ccccc1 get here?
false (0)

Just curious, what result did Cc1oc2c(NC(=O)c3c(Cl)cccc3Cl)cccc2c1C(C)(C)O get here?
false (0)

Just curious, what result did Cc1occc1C(=O)Nc1ccc(C(=O)N2CCC(F)(F)/C(=C\C(=O)N3CCC(N4CCCCC4)CC3)c3ccccc32)cc1 get here?
true (1)

Just curious, what result did O=C1c2ccccc2C(=O)N1CCc1noc(-c2ccc(CN3CCCCCC3)s2)n1 get here?
true (1)
